# System: HOP-62
# measurement.notes: relative viability (nuclei count vs DMSO), 5 days (fraction); higher = more cells survive
# experimental.setup: first compound 0.002 µM
measured.property: relative viability
Would you mind answering with just the numeric figure?

| compound | relative viability |
| --- | --- |
| CC(=O)O[C@@]12CO[C@@H]1C[C@H](O)[C@@]1(C)C(=O)[C@H](O)C3=C(C)[C@@H](OC(=O)[C@H](O)[C@@H](NC(=O)OC(C)(C)C)c4ccccc4)C[C@@](O)([C@@H](OC(=O)c4ccccc4)[C@H]21)C3(C)C [Docetaxel] + Nc1nc2[nH]cc(CCc3ccc(C(=O)N[C@@H](CCC(=O)O)C(=O)O)cc3)c2c(=O)[nH]1 [Pemetrexed] (partner 0.2 µM) | 0.304 |
| CC(=O)O[C@@]12CO[C@@H]1C[C@H](O)[C@@]1(C)C(=O)[C@H](O)C3=C(C)[C@@H](OC(=O)[C@H](O)[C@@H](NC(=O)OC(C)(C)C)c4ccccc4)C[C@@](O)([C@@H](OC(=O)c4ccccc4)[C@H]21)C3(C)C [Docetaxel] + N=C(N)NC(=N)NCCc1ccccc1 [Phenformin] (partner 250 µM) | 0.322 |
| CC(=O)O[C@@]12CO[C@@H]1C[C@H](O)[C@@]1(C)C(=O)[C@H](O)C3=C(C)[C@@H](OC(=O)[C@H](O)[C@@H](NC(=O)OC(C)(C)C)c4ccccc4)C[C@@](O)([C@@H](OC(=O)c4ccccc4)[C@H]21)C3(C)C [Docetaxel] + CC1(C)CCC(c2ccc(Cl)cc2)=C(CN2CCN(c3ccc(C(=O)NS(=O)(=O)c4ccc(N[C@H](CCN5CCOCC5)CSc5ccccc5)c(S(=O)(=O)C(F)(F)F)c4)cc3)CC2)C1 [Navitoclax] (partner 0.5 µM) | 0.312 |
| CC(=O)O[C@@]12CO[C@@H]1C[C@H](O)[C@@]1(C)C(=O)[C@H](O)C3=C(C)[C@@H](OC(=O)[C@H](O)[C@@H](NC(=O)OC(C)(C)C)c4ccccc4)C[C@@](O)([C@@H](OC(=O)c4ccccc4)[C@H]21)C3(C)C [Docetaxel] + Cc1cc(Nc2cc(N3CCN(C)CC3)nc(Sc3ccc(NC(=O)C4CC4)cc3)n2)n[nH]1 [Tozasertib] (partner 0.1 µM) | 0.281 |

Now take the following compound into account.
Using the record for CC(=O)O[C@@]12CO[C@@H]1C[C@H](O)[C@@]1(C)C(=O)[C@H](O)C3=C(C)[C@@H](OC(=O)[C@H](O)[C@@H](NC(=O)OC(C)(C)C)c4ccccc4)C[C@@](O)([C@@H](OC(=O)c4ccccc4)[C@H]21)C3(C)C [Docetaxel] + COc1cccc2cc(-c3nc([C@H]4CC[C@H](C(=O)O)CC4)n4ncnc(N)c34)[nH]c12 [OSI-027] (partner 0.5 µM) , report its relative viability.
0.369

====

# System: A549
# measurement.notes: relative viability (nuclei count vs DMSO), 5 days (fraction); higher = more cells survive
# experimental.setup: first compound 0.01581 µM
Checkbox rule: relative viability lower than 0.5 = yes; relative viability not lower than 0.5 = no.

Previously resolved entries follow.
| molecule | label.value |
| --- | --- |
| Nc1ccn([C@@H]2O[C@H](CO)[C@@H](O)[C@@H]2O)c(=O)n1 [Cytarabine] + C[C@@H](Oc1cc(-c2cnn(C3CCNCC3)c2)cnc1N)c1c(Cl)ccc(F)c1Cl [Crizotinib] (partner 1 µM) | no |
| COc1cc2nccc(Oc3ccc(NC(=O)Nc4cc(C)on4)c(Cl)c3)c2cc1OC [Tivozanib] + Nc1ncn([C@H]2C[C@H](O)[C@@H](CO)O2)c(=O)n1 [Decitabine] (partner 2 µM) | yes |
| COc1cc2nccc(Oc3ccc(NC(=O)Nc4cc(C)on4)c(Cl)c3)c2cc1OC [Tivozanib] + CS(=O)(=O)N1CCN(Cc2cc3nc(-c4cccc5[nH]ncc45)nc(N4CCOCC4)c3s2)CC1 [Pictilisib] (partner 1 µM) | yes |
| COc1cc2nccc(Oc3ccc(NC(=O)Nc4cc(C)on4)c(Cl)c3)c2cc1OC [Tivozanib] + CC1(C)CCC(c2ccc(Cl)cc2)=C(CN2CCN(c3ccc(C(=O)NS(=O)(=O)c4ccc(N[C@H](CCN5CCOCC5)CSc5ccccc5)c(S(=O)(=O)C(F)(F)F)c4)cc3)CC2)C1 [Navitoclax] (partner 0.5 µM) | no |
| Nc1ccn([C@@H]2O[C@H](CO)[C@@H](O)[C@@H]2O)c(=O)n1 [Cytarabine] + O=C(c1cc(Cc2n[nH]c(=O)c3ccccc23)ccc1F)N1CCN(C(=O)C2CC2)CC1 [Olaparib] (partner 8 µM) | yes |
| COc1cc2nccc(Oc3ccc(NC(=O)Nc4cc(C)on4)c(Cl)c3)c2cc1OC [Tivozanib] + C[C@]1(O)C[C@@H](c2nc(-c3ccc4ccc(-c5ccccc5)nc4c3)c3c(N)nccn32)C1 [Linsitinib] (partner 1 µM) | no |

Find out if reported relative viability for COc1cc2nccc(Oc3ccc(NC(=O)Nc4cc(C)on4)c(Cl)c3)c2cc1OC [Tivozanib] + N=C(N)NC(=N)NCCc1ccccc1 [Phenformin] (partner 250 µM) is less than 0.5
yes

Find out if reported relative viability for COc1cc2nccc(Oc3ccc(NC(=O)Nc4cc(C)on4)c(Cl)c3)c2cc1OC [Tivozanib] + CS(=O)(=O)CCNCc1ccc(-c2ccc3ncnc(Nc4ccc(OCc5cccc(F)c5)c(Cl)c4)c3c2)o1 [Lapatinib] (partner 2 µM) is less than 0.5
no
